# test.system: recombinant human LTA4 hydrolase (Homo sapiens, UniProt P09960)
# Construct: made in house; host or cells: Spodoptera frugiperda Sf-9 cells, baculovirus (AcNPV) expression vector
# Sequence (P09960 1-611): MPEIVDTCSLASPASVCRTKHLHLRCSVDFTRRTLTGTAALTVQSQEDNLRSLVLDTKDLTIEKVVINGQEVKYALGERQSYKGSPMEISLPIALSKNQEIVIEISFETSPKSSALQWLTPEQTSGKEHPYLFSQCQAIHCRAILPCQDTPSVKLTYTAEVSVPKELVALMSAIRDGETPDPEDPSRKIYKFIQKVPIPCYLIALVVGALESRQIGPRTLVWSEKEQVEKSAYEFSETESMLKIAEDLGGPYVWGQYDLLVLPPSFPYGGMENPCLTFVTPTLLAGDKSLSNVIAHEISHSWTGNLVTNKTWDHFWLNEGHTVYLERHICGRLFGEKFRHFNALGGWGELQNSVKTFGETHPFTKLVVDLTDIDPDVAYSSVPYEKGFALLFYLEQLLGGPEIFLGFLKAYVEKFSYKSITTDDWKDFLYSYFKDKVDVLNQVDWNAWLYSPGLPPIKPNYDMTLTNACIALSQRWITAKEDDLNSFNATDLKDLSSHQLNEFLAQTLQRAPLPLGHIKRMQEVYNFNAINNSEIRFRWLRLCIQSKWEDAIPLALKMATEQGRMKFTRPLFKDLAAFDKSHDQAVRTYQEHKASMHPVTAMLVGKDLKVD
# protocol.description: Recombinant Human LTA4 Hydrolase Assay for LTA4 Hydrolase Inhibitor Activity (LTB4 by enzyme-linked immunoassay)
# Format: biochemical
We'd kindly ask you to apply these inhibition at 3 µM classes: lo (below 30%), med (30% to below 40%), hi (40% or more)

Known results for molecules:
molecule: Cc1nc(COc2ccc(OCCN3CCCC3)cc2)cs1
cat: hi
--
molecule: c1ccc(COc2ccc(OCCn3cnc4ccccc43)cc2)cc1
cat: med
--
molecule: Fc1ccc(Oc2ccc(OCCn3cnc4cccnc43)cc2)cc1 [Example 354A]
cat: hi
--
molecule: O=C(OCc1ccccc1)[C@@H]1CCCN1CCCOc1ccc(Cc2ccccc2)cc1
cat: lo
--
molecule: c1ccc(Cc2ccc(OCCn3cnc4cccnc43)cc2)cc1 [Example 338C]
cat: med

// query Which class holds `CC(C)(C)OC(=O)CCNCCCOc1ccc(Cc2ccccc2)cc1` ?
// result hi

// query // same read-out, input: CC(C)(C)OC(=O)C1CCCN1CCCOc1ccc(Cc2ccccc2)cc1 (stereo not drawn)
// result lo

// query // same read-out, input: c1ccc(COc2ccc(OCCn3cnc4cccnc43)cc2)cc1 [Example 346A]
// result med

----------
Reported IC50 by item:
# test.system: recombinant human LTA4 hydrolase (Homo sapiens)
# protocol.description: Recombinant Human LTA4 Hydrolase Assay for LTA4 Hydrolase Inhibitor Activity (LTB4 by enzyme-linked immunoassay)
# cond: read-out: Recombinant Human LTA4 Hydrolase Assay IC50 LTA4H
Counter-ions that a name gives are not always drawn.
Entry rule: numbers only, all in µM.

compound: CC1(CN2CCCC2)Cc2cc(Cc3ccccc3)ccc2O1 (centres unmarked)
unit.label: µM
IC50: 0.13
//
compound: N#CC1CCN(CCOc2ccc(Cc3ccccc3)cc2)CC1
unit.label: µM
IC50: 0.47
//
compound: c1ccc(Cc2ccc(SCCN3CCCC3)cc2)cc1
unit.label: µM
IC50: 0.48
//
compound: COC(=O)[C@@H]1CCCN1CCOc1ccc(Cc2ccccc2)cc1 [Example 225, monohydrochloride, hydrate]
unit.label: µM
IC50: 0.45
//
compound: NC(=O)CC1CCN(CCOc2ccc(Cc3ccccc3)cc2)C1 (centres unmarked)
unit.label: µM
IC50: 0.21

// query What value of measured IC50 is listed for `c1coc(Cc2ccc(OCCN3CCCC3)cc2)c1` ?
// result 0.047

// query // same read-out, input: Nc1ccc2ncn(CCOc3ccc(Cc4ccccc4)cc3)c2c1 [Example 362B]
// result 1.32

// query // same read-out, input: COC(=O)C1CC2CCC(C1)N2CCOc1ccc(Cc2ccccc2)cc1 (centres unmarked)
// result 0.022

// query // same read-out, input: `O=C(O)CCNCCCOc1ccc(Cc2ccccc2)cc1`
// result 0.14

// query // same read-out, input: `NC(=O)N1CCN(CCOc2ccc(Cc3ccccc3)cc2)CC1`
// result 1.11

// query // same read-out, input: `O=C(O)CCNCCCCOc1ccc(Cc2ccccc2)cc1`
// result 0.018

// query // same read-out, input: `O=C(COc1ccc(Cc2ccccc2)cc1)N1CCCCC1`
// result 0.037

// query // same read-out, input: `CCOC(=O)CNCCCOc1ccc(Cc2ccccc2)cc1`
// result 3

// query // same read-out, input: NC(=O)C1CCN(CCOc2ccc(Cc3ccccc3)cc2)CC1 [Example 242]
// result 0.132

// query // same read-out, input: `c1ccc(Cc2cnc(OCCN3CCCC3)s2)cc1`
// result 2.9

// query // same read-out, input: `CCOC(=O)CCN(C)CCCOc1ccc(Cc2ccccc2)cc1`
// result 0.19

----------
# test.system: recombinant human LTA4 hydrolase (Homo sapiens, UniProt P09960)
# Sequence (P09960 1-611): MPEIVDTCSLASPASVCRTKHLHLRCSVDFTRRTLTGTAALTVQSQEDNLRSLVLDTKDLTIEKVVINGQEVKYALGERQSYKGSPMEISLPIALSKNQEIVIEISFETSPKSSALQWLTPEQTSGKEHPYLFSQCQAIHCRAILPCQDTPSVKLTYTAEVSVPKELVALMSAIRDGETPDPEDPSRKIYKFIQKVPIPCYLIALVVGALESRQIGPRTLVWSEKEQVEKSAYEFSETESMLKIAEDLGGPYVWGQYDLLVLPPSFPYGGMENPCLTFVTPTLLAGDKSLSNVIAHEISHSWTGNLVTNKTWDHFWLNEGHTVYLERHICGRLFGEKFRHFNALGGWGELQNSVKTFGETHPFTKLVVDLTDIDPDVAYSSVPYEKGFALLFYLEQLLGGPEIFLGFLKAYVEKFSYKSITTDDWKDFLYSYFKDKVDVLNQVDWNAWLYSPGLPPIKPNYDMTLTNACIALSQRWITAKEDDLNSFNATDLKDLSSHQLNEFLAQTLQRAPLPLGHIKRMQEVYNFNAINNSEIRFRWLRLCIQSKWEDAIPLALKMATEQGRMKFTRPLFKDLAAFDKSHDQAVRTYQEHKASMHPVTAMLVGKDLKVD
# protocol.description: Recombinant Human LTA4 Hydrolase Assay for LTA4 Hydrolase Inhibitor Activity (LTB4 by enzyme-linked immunoassay)
# cond: read-out: Recombinant Human LTA4 Hydrolase Assay IC50 LTA4H
property.measured: pIC50
Give only the number. pIC50 is defined as minus log10 of concentration in molar units.

Worked examples, 8 compounds total:
compound: NC(=O)NC1CCN(CCOc2ccc(Cc3ccccc3)cc2)CC1 [Example 456]
test.system: recombinant human LTA4 hydrolase (Homo sapiens, UniProt P09960)
pIC50: 7.06
//
compound: NC(=O)C1CCN(CCOc2ccc(Cc3ccccc3)cc2)C1 (stereo not shown) [Example 425]
test.system: recombinant human LTA4 hydrolase (Homo sapiens, UniProt P09960)
pIC50: 7.80
//
compound: CC(=O)N1CCN(CCOc2ccc(Cc3ccccc3)cc2)CC1 [Example 277]
test.system: recombinant human LTA4 hydrolase (Homo sapiens, UniProt P09960)
pIC50: 6.28
//
compound: COC[C@@H]1CCCN1CCOc1ccc(Cc2ccccc2)cc1 [Example 400]
test.system: recombinant human LTA4 hydrolase (Homo sapiens, UniProt P09960)
pIC50: 7.22
//
compound: Cn1c(=O)c2c(ncn2CCOc2ccc(Cc3ccccc3)cc2)n(C)c1=O [Example 353]
test.system: recombinant human LTA4 hydrolase (Homo sapiens, UniProt P09960)
pIC50: 7.14
//
compound: CC(=O)NC1CCN(CCOc2ccc(Cc3ccccc3)cc2)CC1 [Example 238]
test.system: recombinant human LTA4 hydrolase (Homo sapiens, UniProt P09960)
pIC50: 7.30
//
compound: COC(=O)C1CCN(CCOc2ccc(Cc3ccccc3)cc2)C1 (stereo not shown) [Example 276]
test.system: recombinant human LTA4 hydrolase (Homo sapiens, UniProt P09960)
pIC50: 5.39
//
compound: c1ccc(Cc2ccc(OCCN3CCCCC3)cc2)cc1 [Example 401]
test.system: recombinant human LTA4 hydrolase (Homo sapiens, UniProt P09960)
pIC50: 7.26

// query What value of measured pIC50 is listed for CC(=O)NC1CCN(CCOc2ccc(Cc3ccccc3)cc2)C1 (stereo not shown) [Example 227] ?
// result 6.68

// query // same read-out, input: COC(=O)CC1CCN(CCOc2ccc(Cc3ccccc3)cc2)C1 (stereo not shown) [Example 275]
// result 6.41

----------
# test.system: recombinant human LTA4 hydrolase (Homo sapiens, UniProt P09960)
# protocol.description: Recombinant Human LTA4 Hydrolase Assay for LTA4 Hydrolase Inhibitor Activity (LTB4 by enzyme-linked immunoassay)
# cond: read-out: Recombinant Human LTA4 Hydrolase Assay IC50 LTA4H
property.measured: IC50 (µM)
Entry rule: numbers only, all in µM.

Worked examples, 2 compounds total:
compound: COc1ccc(Cc2ccc(OCCN3CCCC3)cc2)cc1
test.system: recombinant human LTA4 hydrolase (Homo sapiens, UniProt P09960)
unit.label: µM
IC50: 0.07
//
compound: COC(=O)CCN(C)CCCOc1ccc(Cc2cccs2)cc1
test.system: recombinant human LTA4 hydrolase (Homo sapiens, UniProt P09960)
unit.label: µM
IC50: 0.016

// query What value of measured IC50 is listed for `c1ccc(Cc2ccc(OCCN3CCC(c4nnn[nH]4)CC3)cc2)cc1` ?
// result 0.24

// query // same read-out, input: c1ccc(Oc2ccc(OCCN3CCCC3)cc2)cc1 [Example 44, 1-[2-(4-phenoxyphenoxy)ethyl]pyrrolidine]
// result 0.03

// query // same read-out, input: c1ccc(Cc2ccc(OCCn3cccc4ncnc3-4)cc2)cc1 [Example 338A]
// result 0.14

// query // same read-out, input: `CNC(=O)C1CCN(CCOc2ccc(Cc3ccccc3)cc2)CC1`
// result 0.057

// query // same read-out, input: NC(=O)NC1CCN(CCOc2ccc(Cc3ccccc3)cc2)C1 (stereo not shown)
// result 0.081

// query // same read-out, input: `Fc1cc(OCCN2CCCC2)ccc1Cc1ccccc1`
// result 0.053

// query // same read-out, input: `c1ncc(Cc2ccc(OCCN3CCCC3)cc2)s1`
// result 0.077

// query // same read-out, input: NC(=O)C1CCCN(CCCOc2ccc(Oc3ccccc3)cc2)C1 (stereo not shown)
// result 4.9
